experiment: NCI Yeast Anticancer Drug Screen. Data for the mlh1 rad18 strain (AID 175); conditions: S. cerevisiae mlh1 rad18 strain growth inhibition; at 50.0 µM; active compounds read high
This is part of a sample that, as a whole, favours compounds with a hit. Of some 79,000 tested, about 15% had one in any assay.
quantity: growth inhibition (%)

| molecule | quantity | unitDescriptor | testResult |
| --- | --- | --- | --- |
| O=C(/N=C1\N=Nc2nc(C(C(=O)c3cccc([N+](=O)[O-])c3Cl)c3nc4n(c3O)/C(=N/C(=O)Nc3ccc(Cl)cc3)N=N4)c(O)n21)Nc1ccc(Cl)cc1 (stereo not given) | growth inhibition | % | 7.1 |
| O=c1[nH]c2ccccc2[nH]1 | growth inhibition | % | -14.4 |
| CN(C)S(=O)(=O)c1ccc(Cl)cc1 | growth inhibition | % | -9.3 |
| N#C/C(=C\c1c2ccccc2c(Cl)c2ccccc12)C(N)=S | growth inhibition | % | 24.4 |
| O=C(CC(=O)C(=O)CC(=O)OCc1ccccc1)OCc1ccccc1 | growth inhibition | % | 2.55 |
| CCN(CC)C(=O)Sc1ccc(SC(=O)N(CC)CC)cc1 | growth inhibition | % | -6.4 |
| C/C(CCc1ccccc1)=N/Nc1ccc([N+](=O)[O-])cc1[N+](=O)[O-] | growth inhibition | % | -4.55 |
| COc1cccc2c1CCC1(O)OC(=O)CC21 (stereo not given) | growth inhibition | % | -15.1 |
| O=[N+]([O-])c1ccc2c(N3CCC(CCCC4CCN(c5ncnc6cc([N+](=O)[O-])ccc56)CC4)CC3)ncnc2c1 | growth inhibition | % | -2.9 |
| CC1(C#N)C(C#N)(C#N)C1(C#N)C#N | growth inhibition | % | -21.1 |

----------
test: NCI Yeast Anticancer Drug Screen. Data for the bub3 strain (AID 167); settings: S. cerevisiae bub3 mutant strain, at 50.0 µM, active compounds read high
Compounds without any hit were thinned out: in the full panel of roughly 79,000, 15% have a hit.

| compound | unitDescriptor | growth inhibition |
| --- | --- | --- |
| COC(=O)C1(CCSc2ccccc2)CCCC1=O (stereo unspecified) | % | 27 |
| OCCN(CCO)c1cc(/C=C/c2c3ccccc3cc3ccccc23)nc2ccccc12 | % | 96.5 |
| O=C(Nc1ccc(Br)cc1)Nc1ccc(Br)cc1 | % | 31.9 |
| CCOC(=O)NC(=S)Nc1cn(C)cc1[N+](=O)[O-] | % | 3.65 |
| Cc1cn(-c2c(C)c(C)c(-n3c(C)ccc3C)c(C)c2C)cc1C | % | 4.85 |
| COC1OC(COS(=O)(=O)c2ccc(C)cc2)C(OS(=O)(=O)c2ccc(C)cc2)C1OCc1ccccc1 (stereo unspecified) | % | -0.65 |
| C(=C\c1cccc2ccccc12)/c1ccc(-c2ccccc2)cc1 | % | -3.45 |
| CC(=O)OCC1OC(N=[N+]=[N-])C(OC(C)=O)C(OC(C)=O)C1OC1OC(COC(C)=O)C(OC(C)=O)C(OC(C)=O)C1OC(C)=O (stereo unspecified) | % | 5.55 |
| C1CCC2(CC1)OCCO2 | % | -7.85 |
| O=c1c2ccccc2c2ccccc2n1C(c1ccccc1)c1ccccc1 | % | -11.5 |
| O=C(O)CS(=O)(=O)c1nc2ccccc2[nH]1 | % | 10.8 |
| CCOC(=O)c1ccc(C)cc1F | % | -7.8 |
| O=C(O)c1cc(=O)c2cc(Cl)ccc2[nH]1 | % | -9.9 |
| O=C(NC(Cc1ccccc1)C(=O)N1CCOCC1)c1ccccc1 (stereo unspecified) | % | 1.85 |
| OC1C(O)C2CC1C1C2C2(Cl)CC1(Cl)C(Cl)=C2Cl (stereo unspecified) | % | -6.1 |
| CCOCCOC(=O)c1ccc(C(N)=NC)cc1 | % | 6.05 |
| CCCC1CN2CCc3cc(OC)c(OC)cc3C2CC1=O (stereo unspecified) | % | 41.1 |
| O=C(CN1C(=O)c2ccccc2C1=O)OCC1CCCN2CCCCC12 (stereo unspecified) | % | -6.25 |
| CCOC(=O)CCC(C(=O)c1cccnc1)c1ccccn1 (stereo unspecified) | % | -4.6 |
| O=C(O)c1cccc(S(=O)(=O)NN2C(=O)CSC2c2ccccc2)c1 (stereo unspecified) | % | 3.7 |
| CC(C)OC(=O)NCc1cccs1 | % | 1.7 |
| COC(=O)C(c1ccccc1)C(SCc1ccccc1)c1ccccc1 (stereo unspecified) | % | -7.15 |
| Nc1nc(N)c(N=Nc2ccc(C(=O)O)c(O)c2)c(N)n1 | % | -11.9 |
| COc1ccc(/C=N\S(=O)(=O)c2ccc(OC)cc2)cc1 | % | 2.2 |
| Cn1c2ccccc2c(=O)c2c(O)cc3c(c21)CC(C1(C)CO1)O3 (stereo unspecified) | % | 42.5 |
| CC(C)CNC(=S)N/N=C/C=C/c1ccc([N+](=O)[O-])cc1 | % | 2.7 |
| CCC[CH2][Sn]([C]#[C][Sn]([CH2]CCC)([CH2]CCC)[CH2]CCC)([CH2]CCC)[CH2]CCC | % | 99.3 |
| O=C(O)CC(C(=O)O)C1c2ccccc2-c2ccccc21 (stereo unspecified) | % | -49.2 |
| O=c1[nH]c(C(F)(F)F)c(CCc2ccccc2)c(=O)[nH]1 | % | 36.3 |
| CCCCS(=O)(=O)c1ccc(Cl)cc1 | % | -3.9 |
| Cc1ccc(CS(=O)(=O)c2ccc(C)cc2)cc1 | % | -22.9 |
| O=C(N=C1[Se]C(=Nc2ccccc2)C(=Nc2ccccc2)N1c1ccc(Cl)cc1)c1ccccc1 | % | -9.25 |
| Cc1ccc(C(C)C)cc1NC=O | % | -2.6 |
| O=C(O)COc1cc(Br)cc(Br)c1 | % | -3.9 |
| CC(C)(C)c1ccc(OC(=S)Nc2ccccc2)cc1 | % | -13.6 |
| CC(C)(C)c1ccc(OCCCl)c(Cl)c1 | % | 0.75 |
| Cc1nc(N(C)C)oc(=O)c1Cc1ccccc1 | % | 20.6 |
| OC(CCN1CC2CCC(CC2)C1)(Cc1ccccc1)c1ccc(F)cc1 (stereo unspecified) | % | 22.6 |
| CN(C)c1ccc(/C=C/C(=O)/C=C/c2ccc(N(C)C)cc2)cc1 | % | -12.2 |
| COC(=O)[C@@]12CN(C)[C@@H](C(C)(C)C)N1C(=O)OC2c1ccccc1 (stereo partly specified) | % | 36.6 |
| O=C1c2ccccc2C(=O)c2c(Nc3ccc4c5c(cccc35)C(=O)c3ccccc3-4)cccc21 | % | -8.4 |
| CCN(CC)C(=O)Oc1cc(C(=O)N(CC)CC)c(OC(=O)N(CC)CC)cc1C(=O)N(CC)CC | % | 1 |
| O=C1c2ccccc2CC12Cc1ccccc1C2 | % | -29.7 |
| Cc1nc(Nc2ccc([N+](=O)[O-])cc2)sc1C(=O)/C=C/c1ccc(N(C)C)cc1 | % | 18.6 |
| COc1cc2c(cc1O)CCN[C@@]21CS[C@H]2c3c(OC(C)=O)c(C)c4c(c3C(COC1=O)N1C2C2NC(Cc3cc(C)c(OC)c(O)c32)[C@@H]1O)OCO4 (stereo partly specified) | % | 92.2 |
| Cc1ccnc(NC(=O)Nc2ccccc2Cl)c1 | % | 21 |
